Can you tell me self-cleavage for the items I'm about to list?
B1: Twister Ribozyme (parent)
chain: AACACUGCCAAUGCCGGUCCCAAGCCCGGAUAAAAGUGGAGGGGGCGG

- Variants of: B1
- assay.procedure: self-cleavage, relative activity (ratio to wild type); higher = more cleavage; co-transcriptional
Could you respond with only the numeric value?

QUERY: Please give the measured self-cleavage for this variant: `AACACUGCCAAUGCCGGUCCCAAGCCCCGGUAAAAGUGGAGGGGGCGG`
RESULT: 0.77

QUERY: Please give the measured self-cleavage for this variant: `UACACUGCCAAUGCCGGGCCCAAGCCCGGAUAAAAGUGGAGGGGGCGG`
RESULT: 0.0681

QUERY: Please give the measured self-cleavage for this variant: `AACACUGCCAAUGCCGGUCCCAAGCCCGGAUAAAAGUUGAGGGCGCGG`
RESULT: 0.829

QUERY: Please give the measured self-cleavage for this variant: `AACCCUGCCAAUGGCGGUCCCAAGCCCGGAUAAAAGUGGAGGGGGCGG`
RESULT: 0.0948

QUERY: Please give the measured self-cleavage for this variant: `AACACUGCCAAUGCCGGUCCCAAUCCCGGAUAAAAGUGGAGGGCGCGG`
RESULT: 0.0809

QUERY: Please give the measured self-cleavage for this variant: `AACACUGCCAAUGCCGGUCCCAAGCCUGGAUAAAAGUGGAGGUGGCGG`
RESULT: 0.219

QUERY: Please give the measured self-cleavage for this variant: `AACACUGCCAAUGCCGGUCGCAAGCCCGGAUCAAAGUGGAGGGGGCGG`
RESULT: 0.078

QUERY: Please give the measured self-cleavage for this variant: `AACACUUCCAAUGCCGGUCCCAAGCCCGGAUAAAAGUGGAGAGGGCGG`
RESULT: 0.0796

QUERY: Please give the measured self-cleavage for this variant: `AACACUGCCAUUGCCGGUCCCAAGCCCUGAUAAAAGUGGAGGGGGCGG`
RESULT: 0.968

QUERY: Please give the measured self-cleavage for this variant: `AACACUGCCAAUGCUGGUCCCAAGCCCGGAUAAAAGUAGAGGGGGCGG`
RESULT: 0.831

QUERY: Please give the measured self-cleavage for this variant: `AACACUGCCAAUGCCGGUCCCAAGCACGGUUAAAAGUGGAGGGGGCGG`
RESULT: 0.542

QUERY: Please give the measured self-cleavage for this variant: `AACACUGCCAAUGCCGGUCCCAUGCCCGGAUAAAUGUGGAGGGGGCGG`
RESULT: 0.614

QUERY: Please give the measured self-cleavage for this variant: `AACACUGCCGAUGCCGGUCCCAAGCCCGGAUAAAACUGGAGGGGGCGG`
RESULT: 0.855

QUERY: Please give the measured self-cleavage for this variant: `AACACUGCCAAUGCCGGUCCCAAGCCCGGAUAAAAGUCGAGGGGGCGG`
RESULT: 0.951

QUERY: Please give the measured self-cleavage for this variant: `AACAAUGCCAAUCCCGGUCCCAAGCCCGGAUAAAAGUGGAGGGGGCGG`
RESULT: 0.105

QUERY: Please give the measured self-cleavage for this variant: `AACACUGCCAAUGCCGAUCCCAAGCCCGGAUAAAAGUGGAGGGGGCUG`
RESULT: 0.489

QUERY: Please give the measured self-cleavage for this variant: `AACACUCCCAAUGCCGGUCCCAAGCCCGGAUAAAAGUGGAGGGGGCGG`
RESULT: 0.0658

QUERY: Please give the measured self-cleavage for this variant: `ACCACUGCCAAUGCCGGUCCCAAGCCCGGAUAAAAGUGGAGGCGGCGG`
RESULT: 0.0309

QUERY: Please give the measured self-cleavage for this variant: `CACACUGCCAAUGCCGGUCCCAAGCCCGGAUAAAAGUGGAGGGAGCGG`
RESULT: 0.176

QUERY: Please give the measured self-cleavage for this variant: `AACAGUGCCAAUGCCGGUACCAAGCCCGGAUAAAAGUGGAGGGGGCGG`
RESULT: 0.0784

QUERY: Please give the measured self-cleavage for this variant: `GACACUGCCAAUGCCGGUCCCAAGCCCGGAUCAAAGUGGAGGGGGCGG`
RESULT: 0.497

QUERY: Please give the measured self-cleavage for this variant: `AACACUGCCAAUGCCGGUCCCAAGCCCGGAUAAAAGUCGGGGGGGCGG`
RESULT: 0.134
